From: paper PMC3509056

# TARGET_ENTITY: hFFA3 (Homo sapiens, UniProt O14843)
# Sequence (O14843 1-346): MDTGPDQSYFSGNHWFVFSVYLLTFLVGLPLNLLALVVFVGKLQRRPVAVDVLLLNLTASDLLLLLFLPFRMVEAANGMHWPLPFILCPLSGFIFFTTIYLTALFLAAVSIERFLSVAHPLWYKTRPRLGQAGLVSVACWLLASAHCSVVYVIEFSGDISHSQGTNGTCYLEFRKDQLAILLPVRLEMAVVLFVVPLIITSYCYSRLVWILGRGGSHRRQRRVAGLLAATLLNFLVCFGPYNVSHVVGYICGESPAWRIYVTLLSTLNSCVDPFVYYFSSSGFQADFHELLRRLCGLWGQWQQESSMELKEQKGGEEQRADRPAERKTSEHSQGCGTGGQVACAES
# TEST_DESCRIPTION: […]GTPγS incorporation, membranes
# Format: biochemical
Catalogue of compounds with associated log10 EC50
OBSERVABLE: log10 EC50 (log10 of the value in µM)

compound="CCCCCC(=O)O [C6, caproic acid]" target_entity="hFFA3 (Homo sapiens, UniProt O14843)" observable="log10 EC50" readout_number=2.31
compound="CCC(=O)O [C3, propionic acid]" target_entity="hFFA3 (Homo sapiens, UniProt O14843)" observable="log10 EC50" readout_number=2.30
compound="CCCCC(=O)O [C5, valeric acid]" target_entity="hFFA3 (Homo sapiens, UniProt O14843)" observable="log10 EC50" readout_number=1.56
compound="CCCC(=O)O [C4, butyric acid]" target_entity="hFFA3 (Homo sapiens, UniProt O14843)" observable="log10 EC50" readout_number=2.40
compound="CC(=O)O [C2, acetic acid]" target_entity="hFFA3 (Homo sapiens, UniProt O14843)" observable="log10 EC50" readout_number=3.88
compound="CCCCCCC(=O)O [C7, heptanoic acid]" target_entity="hFFA3 (Homo sapiens, UniProt O14843)" observable="log10 EC50" readout_number=1.84
